- measured_on: proteasome of MDA-MB-231 cell extract (Homo sapiens, UniProt P28072+P28074+Q99436)
- Construct: endogenous in cells; host or cells: MDA-MB-231 whole-cell extract
- Sequence (P28074 60-263): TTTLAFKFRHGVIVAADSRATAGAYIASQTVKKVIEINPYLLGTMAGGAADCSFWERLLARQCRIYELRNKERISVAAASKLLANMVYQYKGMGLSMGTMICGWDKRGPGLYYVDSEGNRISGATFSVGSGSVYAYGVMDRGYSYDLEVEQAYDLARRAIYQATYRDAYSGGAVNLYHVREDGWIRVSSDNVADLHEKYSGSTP
- Sequence (P28072 whole entry): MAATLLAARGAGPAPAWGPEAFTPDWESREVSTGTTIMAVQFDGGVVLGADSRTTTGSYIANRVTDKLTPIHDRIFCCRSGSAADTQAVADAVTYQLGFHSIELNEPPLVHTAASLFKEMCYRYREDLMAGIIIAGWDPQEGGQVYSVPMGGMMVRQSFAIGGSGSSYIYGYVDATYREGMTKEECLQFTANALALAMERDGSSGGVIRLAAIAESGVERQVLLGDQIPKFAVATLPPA
- Sequence (Q99436 44-277): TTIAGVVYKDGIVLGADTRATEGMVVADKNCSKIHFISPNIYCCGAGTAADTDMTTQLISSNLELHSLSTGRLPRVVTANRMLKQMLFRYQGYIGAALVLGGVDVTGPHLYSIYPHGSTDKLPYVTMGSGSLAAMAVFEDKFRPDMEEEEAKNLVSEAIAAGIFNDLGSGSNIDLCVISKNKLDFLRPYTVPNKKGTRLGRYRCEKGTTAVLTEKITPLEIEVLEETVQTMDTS
- test_method_notes: Proteasome activity assay on MDA-MB-231 whole-cell extract
- Assay type: biochemical
- protocol_conditions: 2 h incubation, read-out: IC50 PGPH-like activity
pIC50: −log10 of the molar value.
reported_endpoint: pIC50

- C[N+](CC(=O)NCC(=O)OC(C)(C)C)=C1[S][Au-]([Br])([Br])[S]1 [AuD6, [Au^IIIBr2(dtc-Sar-AA-O(t-Bu))]]: 5.64
- C[N+](CC(=O)NC(C)(C)C(=O)OC(C)(C)C)=C1[S][Au-]([Br])([Br])[S]1 [AuD8, [Au^IIIBr2(dtc-Sar-AA-O(t-Bu))]]: 5.35

* * *

- measured_on: Purified human 20S proteasome (Homo sapiens, UniProt P28072+P28074+Q99436)
- Construct: purchased Boston Biochem (Boston, MA)
- test_method_notes: Proteasome activity assay on purified 20S proteasome (fluorogenic substrates)
- Format: biochemical
- protocol_conditions: 2 h incubation, read-out: IC50 PGPH-like activity
pIC50: −log10 of the molar value.
reported_endpoint: pIC50

- C[N+](CC(=O)NCC(=O)OC(C)(C)C)=C1[S][Au-]([Br])([Br])[S]1 [AuD6, [Au^IIIBr2(dtc-Sar-AA-O(t-Bu))]]: 6.31
- C[N+](CC(=O)NC(C)(C)C(=O)OC(C)(C)C)=C1[S][Au-]([Br])([Br])[S]1 [AuD8, [Au^IIIBr2(dtc-Sar-AA-O(t-Bu))]]: 6.27
